EC50 listing for selected molecules.
System: parasites (ring stage, in human red blood cell culture)
method notes: Parasite LDH growth assay (antiparasite potency, Parasite Assay)
Type: cell-based, Plasmodium falciparum
particulars: Plasmodium falciparum, Erythrocyte, 72 h, 0.7% rings, 2% haematocrit, 72 hours at 37° C., LDH readout of parasite growth
readout kind: EC50 (nM)

- molecule: "COCC1(C)CC(N2C(=N)NC(C)(C)CC2=O)c2cc(C(=O)N[C@@H]3c4ccccc4C[C@]3(C)O)ccc2O1 (stereo partly shown)"
  readout kind: "EC50"
  observed: 66
- molecule: "CCC1(CC)CC(=O)N(C2CC(C(=O)N(C)C)Oc3ccc(C(=O)N[C@@H]4c5ccccc5C[C@@]4(C)O)cc32)C(=N)N1 (stereo partly shown)"
  readout kind: "EC50"
  observed: 49.7
- molecule: "COCC1(C)CC(N2C(=N)NC(C)(C)CC2=O)c2cc(C(=O)N[C@@H]3c4ccccc4C[C@H]3O)ccc2O1 (stereo partly shown)"
  readout kind: "EC50"
  observed: 31
- molecule: "CCC1(CC)CC(=O)N([C@H]2c3cc(C(=O)N[C@@H]4c5ccccc5OC[C@@]4(C)O)ccc3OC[C@@H]2OC)C(=N)N1"
  readout kind: "EC50"
  observed: 3.4
- molecule: "CCC1(CC)CC(=O)N([C@@H]2CCOc3ccc(C(=O)NC4CCCOc5ccccc54)cc32)C(=N)N1 (stereo partly shown)"
  readout kind: "EC50"
  observed: 2.8
- molecule: "CC1(C)CC(=O)N(C2c3cc(C(=O)N[C@@H]4c5ccccc5C[C@H]4O)ccc3OC2(C)C)C(=N)N1 (stereo partly shown)"
  readout kind: "EC50"
  observed: 45.2
- molecule: "CO[C@@H]1COc2ccccc2[C@H]1NC(=O)c1ccc2c(c1)[C@H](N1C(=N)NC(C)(C)CC1=O)CCO2"
  readout kind: "EC50"
  observed: 14

* * *

Tested on: parasites (ring stage, in human red blood cell culture)
method notes: Parasite LDH growth assay (antiparasite potency, Parasite Assay)
Format: cell-based, Plasmodium falciparum
particulars: Plasmodium falciparum, Erythrocyte, 72 h, 0.7% rings, 2% haematocrit, 72 hours at 37° C., LDH readout of parasite growth
Recorded EC50 split into classes low class (below 8 nM), middle class (8 nM to below 70 nM), high class (70 nM or more)

- molecule: "CC1(C)CC(=O)N([C@@H]2CC(C)(C)c3ccc(C(=O)N[C@H]4CC(C)(C)Oc5ccccc54)cc32)C(=N)N1 [Example 113]"
  label: "middle class"
- molecule: "CC1(C)CC(=O)N([C@@H]2CCS(=O)(=O)c3ccc(C(=O)N[C@H]4C[C@H](C(F)(F)F)Oc5ccccc54)cc32)C(=N)N1 [Example 293]"
  label: "low class"
- molecule: "CCC1(CC)CC(=O)N([C@H]2CCS(=O)(=O)c3ccc(C(=O)N[C@@H]4c5ccccc5C[C@H]4O)cc32)C(=N)N1 [Example 223]"
  label: "high class"
- molecule: "CCC1(CC)CC(=O)N([C@@H]2CCOc3ccc(C(=O)N[C@H]4c5ccccc5OCC4(C)O)cc32)C(=N)N1 (single isomer, unassigned) [Example 60A]"
  label: "low class"
- molecule: "CCC1(CC)CC(=O)N([C@H]2c3cc(C(=O)N[C@@H]4c5ccccc5C[C@H]4O)ccc3OC[C@@H]2COC)C(=N)N1 [Example 216]"
  label: "low class"
- molecule: "CC[C@]1(C)CC(=O)N(C2c3cc(C(=O)N[C@@H]4c5ccccc5OC(C)(C)[C@H]4O)ccc3OCC2(C)OC)C(=N)N1 (stereo partly shown) [Example 284]"
  label: "middle class"
- molecule: "CC1(C)CC(=O)N([C@H]2CCS(=O)(=O)c3ccc(C(=O)N[C@H]4CC(C)(C)Oc5ccccc54)cc32)C(=N)N1 [Example 221]"
  label: "high class"
- molecule: "CCC1(CC)CC(=O)N([C@H]2C[C@H](OC)c3ccc(C(=O)N[C@@H]4c5ccccc5OC(C)(C)[C@H]4O)cc32)C(=N)N1 [Example 237]"
  label: "high class"
- molecule: "CC[C@]1(C)CC(=O)N(C2c3cc(C(=O)N[C@@H]4c5ccccc5C[C@H]4O)ccc3OCC2OC)C(=N)N1 (stereo partly shown) [Example 145]"
  label: "middle class"
- molecule: "CCC1(CC)CC(=O)N([C@@H]2CCOc3ccc(C(=O)NC(CO)c4ccccc4OC)cc32)C(=N)N1 (stereo partly shown) [Example 150]"
  label: "middle class"
- molecule: "CC[C@]1(C)CC(=O)N(C2CC(C)Oc3ccc(C(=O)N[C@@H]4c5ccccc5OC(C)(C)[C@H]4O)cc32)C(=N)N1 (stereo partly shown) [Example 210]"
  label: "high class"
- molecule: "CC[C@@]1(C)CC(=O)N(C2c3cc(C(=O)N[C@H]4CC(C)(C)Oc5ccccc54)ccc3OCC2O)C(=N)N1 (stereo partly shown) [Example 177]"
  label: "middle class"
- molecule: "CCC1(CC)CC(=O)N([C@@H]2CCOc3ccc(C(=O)N[C@@H]4c5cc(Br)ccc5OC(C)(C)[C@H]4O)cc32)C(=N)N1 [Example 15A]"
  label: "low class"
